# assayed-target: Protein phosphatase methylesterase 1 (Homo sapiens)
# method: PME-1 inhibitor activity retest, confirmation, biochemical, fluorescence polarization, FP-Rh probe, triplicate (AID 2171);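 note: 0% = enzyme with DMSO and 100% = wells lacking PME-1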
# settings: recombinant PME-1, FP-Rh probe fluorescence polarization; at 5.9 µM
Active and inactive are the calls of the source.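 Rule for the calls: active = inhibition above the hit cutoff set in the earlier primary screen (cut at about 27% in these data); inactive = the rest.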
Classes used: 1.0 (active), 0.0 (inactive)

{"compound-string": "CCCn1c(N)c(C(=O)CN(C)CC(=O)Nc2ccccc2CC)c(=O)[nH]c1=O", "assayed-target": "Protein phosphatase methylesterase 1 (Homo sapiens)", "class-label": 0.0}
{"compound-string": "Cc1c(Cl)cccc1Nc1nc(N)nc(CSc2nc3ccccc3s2)n1", "assayed-target": "Protein phosphatase methylesterase 1 (Homo sapiens)", "class-label": 0.0}
{"compound-string": "CC(C)Nc1nnc(SCC(=O)Nc2ccc3c(c2)C(=O)c2ccccc2C3=O)s1", "assayed-target": "Protein phosphatase methylesterase 1 (Homo sapiens)", "class-label": 1.0}
{"compound-string": "CCOC(=O)c1sc(N/N=C/c2cc(Br)c(O)c(OC)c2)nc1C", "assayed-target": "Protein phosphatase methylesterase 1 (Homo sapiens)", "class-label": 0.0}
{"compound-string": "COc1ccc(Nc2nc(NN)nc(C)c2[N+](=O)[O-])cc1", "assayed-target": "Protein phosphatase methylesterase 1 (Homo sapiens)", "class-label": 0.0}
{"compound-string": "Oc1ccc(N=Cc2ccc(OCc3ccccc3)cc2)cc1", "assayed-target": "Protein phosphatase methylesterase 1 (Homo sapiens)", "class-label": 0.0}

* * *

# method: StAR promoter reporter inhibitors, counter-screen for LRH-1 inverse agonist project, cell-based, luminescence, high throughput (AID 651611)
# settings: StAR promoter luciferase reporter counterscreen, at 3.6 µM, hits give high values
# label = bin(measured inhibition), where bins are class A (below 10%), class B (10% to below 20%), class C (20% or more)

{"compound": "CN1C(=O)NC(c2ccccc2[N+](=O)[O-])C2=C1CC(C)(C)CC2=O (configuration not stated)", "class-label": "class A"}
{"compound": "Cc1cc(C(=O)CSc2nnnn2-c2ccccc2)c(C)n1-c1ccc2c(c1)OCO2", "class-label": "class A"}
{"compound": "COc1ccc(N2CCN(C(=O)C3CCC(Cn4c(=S)[nH]c5ccccc5c4=O)CC3)CC2)cc1 (configuration not stated)", "class-label": "class A"}
{"compound": "N=c1c2c(n(Cc3ccc(F)cc3)c3c1CCC3)CCCC2", "class-label": "class C"}
{"compound": "Nc1ccc2oc(-c3cc(Br)ccc3Cl)nc2c1", "class-label": "class A"}
{"compound": "COc1ccc(NC(=O)CN2C(=O)NC3(CCCC3)C2=O)cc1", "class-label": "class A"}
{"compound": "COc1cc(C)c(Br)cc1S(=O)(=O)NCc1ccncc1", "class-label": "class B"}
{"compound": "CCOc1cc(/C=N/n2nnnc2N)ccc1OCc1c(C)no[n+]1[O-]", "class-label": "class B"}
{"compound": "Cc1ccc(/C=C2/CNC/C(=C/c3ccc(C)cc3)C2=O)cc1", "class-label": "class C"}
{"compound": "O=C(CSC1=NC2(CCCCCC2)N=C1c1ccccc1)Nc1ccc2c(c1)OCCO2", "class-label": "class A"}
{"compound": "CCOC(=O)C1=Nc2ccccc2C1=[N+]=[N-]", "class-label": "class B"}
{"compound": "C#CC(=O)N(c1ccc(OC)c(OC)c1)C(C(=O)NC1CCCC1)c1cccs1 (configuration not stated)", "class-label": "class B"}
{"compound": "COCCNc1ccc([N+](=O)[O-])cc1C(=O)NC1CCCc2ccccc21 (configuration not stated)", "class-label": "class A"}
{"compound": "O=[N+]([O-])c1cnccc1Nc1cccc(F)c1", "class-label": "class B"}
{"compound": "COc1ccc(C2=CC(=O)OC3(CCCCC3)O2)cc1", "class-label": "class B"}
{"compound": "Cc1cc(C)c2nc(-c3cccnc3)cc(C(=O)NC(C)c3cnn(C)c3C)c2c1 (configuration not stated)", "class-label": "class B"}
{"compound": "CCc1ccccc1NC(=O)CSc1nc2n[nH]c(C)c2c(=N)n1-c1cccc(OC)c1", "class-label": "class B"}
{"compound": "COc1ccc2c(c1)/C(=C/c1cc(OC)c(OC)c(OC)c1)C(=O)N2", "class-label": "class C"}
{"compound": "O=[N+]([O-])c1ccc(N2CCN(Cc3ccccc3)CC2)c2c1no[n+]2[O-]", "class-label": "class C"}

* * *

Reported activation (% of control) by item:
# method: STAT1 signaling activators, confirmation, cell-based, HTS, luciferase reporter (AID 1262);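 note: simple ratio to median IFN-gamma plus DMSO wells so 0% means no light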
# settings: NIH 3T3 STAT1-luciferase reporter, IFN-gamma potentiation, luminescence; at 5.7 µM; hits give high values; 100% = IFN-gamma EC80 alone, no compound
Some of the results follow. The source made the active and inactive calls.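 How the source made its calls: active means activation above a set limit carried over from the earlier primary STAT1 screen (cut at about 140% in these data); inactive means the rest.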

{"molecule": "Cc1cccc(-n2c(O)c(C=Nc3ccccc3N)c(=O)[nH]c2=O)c1", "activation (% of control)": "127% (inactive)"}
{"molecule": "COc1ccc(-c2csc(-c3cccs3)n2)cc1OC", "activation (% of control)": "179% (active)"}
{"molecule": "CC(C)(C)C(=O)c1cnc(Nc2ccccc2)s1", "activation (% of control)": "164% (active)"}
{"molecule": "Cc1cc(Cl)ccc1OCc1nc(-c2ccncc2)no1", "activation (% of control)": "165% (active)"}
{"molecule": "CCc1ccc(NC2Nc3cc(C)nn3S2)cc1 (stereo unspecified)", "activation (% of control)": "206% (active)"}
{"molecule": "Cc1nn(-c2ccc([N+](=O)[O-])cc2)c(N)c1-c1ccccc1", "activation (% of control)": "207% (active)"}

* * *

# assayed-target: Nuclear receptor subfamily 5 group A member 2 (Homo sapiens) (UniProt O00482)
# Sequence (O00482 whole entry, looked up): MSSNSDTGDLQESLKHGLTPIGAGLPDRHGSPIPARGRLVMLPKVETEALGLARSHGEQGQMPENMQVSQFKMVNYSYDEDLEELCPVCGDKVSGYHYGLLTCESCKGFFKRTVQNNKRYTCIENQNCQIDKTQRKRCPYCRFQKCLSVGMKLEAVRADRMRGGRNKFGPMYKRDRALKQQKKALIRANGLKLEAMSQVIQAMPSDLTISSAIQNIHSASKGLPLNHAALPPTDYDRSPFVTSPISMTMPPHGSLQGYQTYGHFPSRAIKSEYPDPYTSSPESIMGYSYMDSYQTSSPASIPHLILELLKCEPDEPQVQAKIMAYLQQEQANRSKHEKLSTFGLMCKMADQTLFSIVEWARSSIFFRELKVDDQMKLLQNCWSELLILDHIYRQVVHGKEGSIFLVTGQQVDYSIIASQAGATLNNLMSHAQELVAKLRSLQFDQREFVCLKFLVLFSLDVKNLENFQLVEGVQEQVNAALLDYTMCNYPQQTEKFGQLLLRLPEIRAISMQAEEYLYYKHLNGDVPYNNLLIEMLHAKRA
# method: LRH-1 (NR5A2) inverse agonists, retest, confirmation, cell-based, luminescence (AID 651613);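 note: HEK293T cells co-transfected with LRH-1 and StAR promoter luciferase reporter; 0% = vehicle wells and 100% = parental cells lacking receptor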
# settings: cell-based LRH-1 luciferase reporter, inverse agonism; at 3.6 µM; hits give high values

{"compound": "Cc1ccc(-c2nc(-c3ccccn3)no2)cc1", "unit-of-measure": "%", "inhibition": 11}
{"compound": "O=C(N/N=C/c1ccc([N+](=O)[O-])s1)c1ccccc1Br", "unit-of-measure": "%", "inhibition": 57.5}
{"compound": "COc1ccc(C(=O)Nc2nc3ccccc3s2)c(OC)c1", "unit-of-measure": "%", "inhibition": 93.9}
{"compound": "COc1cccc2c1C(=O)c1c(O)c3c(c(O)c1C2=O)C[C@@](O)(C(=O)CO)C[C@@H]3OC1CC(N)C(O)C(C)O1 (stereo partly specified)", "unit-of-measure": "%", "inhibition": 87.5}
{"compound": "O=C(CN1C(=O)NC2(CCCCCC2)C1=O)Nc1ccc([N+](=O)[O-])cc1", "unit-of-measure": "%", "inhibition": 63.1}
{"compound": "COC(=O)c1ccc(NC(=O)CSC2=NCCN2)cc1", "unit-of-measure": "%", "inhibition": 54.5}

* * *

# System: transactivating tegument protein VP16 (Human herpesvirus 1), Gal4-VP16 luciferase reporter
# method: VP16 transactivation inhibitors, counter-screen for SRC3 inhibitor project, cell-based, luminescence, high throughput (AID 588794)
# settings: mammalian cells, VP16-driven luciferase reporter luminescence; at 3.6 µM; hits give high values
Active and inactive are the calls of the source. No stated cut-off is given here; in the data, active means inhibition above about 30%; inactive means the rest.

{"molecule": "COc1ccc(NC(=O)C2CCN(S(=O)(=O)c3ccc4c(c3)CC(C)N4C(C)=O)CC2)cc1OC (stereo not given)", "inhibition": "5.82% (inactive)"}
{"molecule": "COc1cccc(C(=O)/C=C/c2ccc(OCC#N)c(OC)c2)c1", "inhibition": "23.2% (inactive)"}
{"molecule": "CC(C)C[C@H]1CNC(=S)N1C[C@H]1CCCN1C[C@H](Cc1ccc(O)cc1)N1C[C@H](CC(C)C)N(CC2CCCCCC2)C1=S", "inhibition": "16.3% (inactive)"}
{"molecule": "CCOc1ccc(-n2c(C)c(C(C)=O)c3cc(OC(C)=O)ccc32)cc1", "inhibition": "44.5% (active)"}
{"molecule": "CCN(CCCNC(=O)c1ccc2c(c1)NC(=O)CN2C)c1cccc(C)c1", "inhibition": "1.36% (inactive)"}
{"molecule": "COc1ccc(-c2oc3ccc(N4CCOCC4)cc3c2C#CCO)cc1", "inhibition": "21.3% (inactive)"}
{"molecule": "C=CCc1cccc(/C=N/NC(=O)CCC(=O)Nc2ccc(F)cc2)c1O", "inhibition": "21.1% (inactive)"}
{"molecule": "O=C(N/N=C/c1cc([N+](=O)[O-])ccc1O)NC12CC3CC(CC(C3)C1)C2", "inhibition": "15.1% (inactive)"}
{"molecule": "O=C(CCl)Nc1cccc(-c2cnc3ccccc3n2)c1", "inhibition": "13.8% (inactive)"}
{"molecule": "Cc1nn(C(C)(C)C)c(C)c1/C=N/OC(=O)Nc1ccc(Cl)c(Cl)c1", "inhibition": "16.6% (inactive)"}
